Test system: NCI-H23
procedureDetails: relative viability (nuclei count vs DMSO), 5 days (fraction); higher = more cells survive
protocolConditions: first compound 0.8 µM
Output y for records whose relative viability is lower than 0.5, n for records at or above 0.5.

compound	groupLabel
O=c1[nH]c2ccccc2n1C1CCN(CCCC(c2ccc(F)cc2)c2ccc(F)cc2)CC1 [Pimozide] + NC(=O)Nc1cc(-c2cccc(F)c2)sc1C(=O)N[C@H]1CCCNC1 [AZD7762] (partner 0.2 µM)	y

Ask: Item Cc1cnc(-c2cnc(NCCNc3ccc(C#N)cn3)nc2-c2ccc(Cl)cc2Cl)[nH]1 + CC1(C)CCC(c2ccc(Cl)cc2)=C(CN2CCN(c3ccc(C(=O)NS(=O)(=O)c4ccc(N[C@H](CCN5CCOCC5)CSc5ccccc5)c(S(=O)(=O)C(F)(F)F)c4)cc3)CC2)C1 [Navitoclax] (partner 0.5 µM) : relative viability beneath 0.5, strictly?
Reply: n

Ask: Item Cc1cnc(-c2cnc(NCCNc3ccc(C#N)cn3)nc2-c2ccc(Cl)cc2Cl)[nH]1 + Nc1ncn([C@H]2C[C@H](O)[C@@H](CO)O2)c(=O)n1 [Decitabine] (partner 2 µM) : relative viability beneath 0.5, strictly?
Reply: y

Ask: Item Cc1cnc(-c2cnc(NCCNc3ccc(C#N)cn3)nc2-c2ccc(Cl)cc2Cl)[nH]1 + CC(C)C[C@H](NC(=O)[C@H](Cc1ccccc1)NC(=O)c1cnccn1)B(O)O [Bortezomib] (partner 0.002 µM) : relative viability beneath 0.5, strictly?
Reply: n

Ask: Item O=c1[nH]c2ccccc2n1C1CCN(CCCC(c2ccc(F)cc2)c2ccc(F)cc2)CC1 [Pimozide] + COc1cccc2cc(-c3nc([C@H]4CC[C@H](C(=O)O)CC4)n4ncnc(N)c34)[nH]c12 [OSI-027] (partner 0.5 µM) : relative viability beneath 0.5, strictly?
Reply: y

Ask: Item Cc1cnc(-c2cnc(NCCNc3ccc(C#N)cn3)nc2-c2ccc(Cl)cc2Cl)[nH]1 + C[C@]1(O)C[C@@H](c2nc(-c3ccc4ccc(-c5ccccc5)nc4c3)c3c(N)nccn32)C1 [Linsitinib] (partner 1 µM) : relative viability beneath 0.5, strictly?
Reply: n

----------
Test system: NCI-H460
procedureDetails: relative viability (nuclei count vs DMSO), 5 days (fraction); higher = more cells survive
protocolConditions: first compound 0.8 µM
Catalogue of relative viability readings, one per entry.

compound	targetEntity	relative viability
O=c1[nH]c2ccccc2n1C1CCN(CCCC(c2ccc(F)cc2)c2ccc(F)cc2)CC1 [Pimozide] + Nc1nc2[nH]cc(CCc3ccc(C(=O)N[C@@H](CCC(=O)O)C(=O)O)cc3)c2c(=O)[nH]1 [Pemetrexed] (partner 0.2 µM)	NCI-H460	0.0627

// below: relative viability requested for another compound
Ask: Recorded relative viability for Cc1cnc(-c2cnc(NCCNc3ccc(C#N)cn3)nc2-c2ccc(Cl)cc2Cl)[nH]1 + O=C(c1cc(Cc2n[nH]c(=O)c3ccccc23)ccc1F)N1CCN(C(=O)C2CC2)CC1 [Olaparib] (partner 8 µM) with NCI-H460, please?
Reply: 0.342

----------
System: NCI-H1975
procedureDetails: relative viability (nuclei count vs DMSO), 5 days (fraction); higher = more cells survive
protocolConditions: first compound 158.11 µM
assayReadout: relative viability
No unit in the answer, please; the number alone is enough.

molecule	targetEntity	assayReadout	val
O=C(O)CCCCC(CCSCc1ccccc1)SCc1ccccc1 (stereo not drawn) [CPI-613] + CC(=O)c1c(C)c2cnc(Nc3ccc(N4CCNCC4)cn3)nc2n(C2CCCC2)c1=O [Palbociclib] (partner 0.5 µM)	NCI-H1975	relative viability	0.562
O=C(O)CCCCC(CCSCc1ccccc1)SCc1ccccc1 (stereo not drawn) [CPI-613] + C[C@]1(O)C[C@@H](c2nc(-c3ccc4ccc(-c5ccccc5)nc4c3)c3c(N)nccn32)C1 [Linsitinib] (partner 1 µM)	NCI-H1975	relative viability	0.541

Ask: I have this molecule here, O=C(O)CCCCC(CCSCc1ccccc1)SCc1ccccc1 (stereo not drawn) [CPI-613] + Cc1cc(Nc2cc(N3CCN(C)CC3)nc(Sc3ccc(NC(=O)C4CC4)cc3)n2)n[nH]1 [Tozasertib] (partner 0.1 µM) , and I need its recorded relative viability.
Reply: 0.324
